- study_system: Muscarinic acetylcholine receptor M2 (Sus scrofa)
- test: Equilibrium binding to muscarinic acetylcholine receptor M2 using [3H]NMS in porcine heart ventricles
measured_quantity: [3H]NMS equilibrium binding (%)

compound	units_label	[3H]NMS equilibrium binding (%)
CC#CC[N@+]12CCC34c5ccccc5N5C6OCC=C7C[N@+]8(CC#CC)CCC9%10c%11ccccc%11N(C%11OCC=C(C1)C(CC32)C%11C54)C9C6C7CC%108 (stereo partly specified)	%	103
C1=CC([N@+]23CCC45c6ccccc6N6C7OCC=C8C[N@+]9(C%10C=CCCC%10)CCC%10%11c%12ccccc%12N(C%12OCC=C(C2)C(CC43)C%12C65)C%10C7C8CC%119)CCC1 (stereo partly specified)	%	109
N#CC[N+]12CC[C@@]34c5ccccc5N5[C@@H]6OCC=C7C[N+]8(CC#N)CC[C@]9%10c%11ccccc%11N([C@@H]%11OCC=C(C1)[C@H](C[C@@H]32)C%11[C@H]54)[C@H]9[C@H]6[C@H]7C[C@@H]%108 (stereo partly specified)	%	85.3
C1=C2C[N+]3(CC4CO4)CC[C@@]45c6ccccc6N6[C@@H]7OCC=C8C[N+]9(CC%10CO%10)CC[C@]%10%11c%12ccccc%12N([C@H](OC1)[C@H](C2C[C@@H]43)[C@H]65)[C@H]%10[C@H]7[C@H]8C[C@@H]%119 (stereo partly specified)	%	110
Fc1c(F)c(F)c(C[N@+]23CCC45c6ccccc6N6C7OCC=C8C[N@+]9(Cc%10c(F)c(F)c(F)c(F)c%10F)CCC%10%11c%12ccccc%12N(C%12OCC=C(C2)C(CC43)C%12C65)C%10C7C8CC%119)c(F)c1F (stereo partly specified)	%	111
C[N+]12CC[C@@]34c5ccccc5N5[C@@H]6OCC[C@@H]7C[N+]8(C)CC[C@]9%10c%11ccccc%11N([C@@H]%11OCC[C@H](C1)[C@H](C[C@@H]32)C%11[C@H]54)[C@H]9[C@H]6[C@H]7C[C@@H]%108 (stereo partly specified)	%	104
FC(F)(F)c1ccc(C[N+]23CC[C@@]45c6ccccc6N6[C@@H]7OCC=C8C[N+]9(Cc%10ccc(C(F)(F)F)cc%10)CC[C@]%10%11c%12ccccc%12N([C@@H]%12OCC=C(C2)[C@H](C[C@@H]43)[C@@H]%12[C@H]65)[C@H]%10[C@H]7[C@H]8C[C@@H]%119)cc1 (stereo partly specified)	%	87
O=C(C[N+]12CC[C@@]34c5ccccc5N5[C@@H]6OCC=C7C[N+]8(CC(=O)c9ccccc9)CC[C@]9%10c%11ccccc%11N([C@@H]%11OCC=C(C1)[C@H](C[C@@H]32)[C@@H]%11[C@H]54)[C@H]9[C@H]6[C@H]7C[C@@H]%108)c1ccccc1 (stereo partly specified)	%	6.1
C1=C2C[N@+]3(Cc4ccccc4)CCC45c6ccccc6N6C7OCC=C8C[N@+]9(Cc%10ccccc%10)CCC%10%11c%12ccccc%12N(C(OC1)C(C2CC43)C65)C%10C7C8CC%119 (stereo partly specified)	%	86.4
NC(=O)C[N+]12CC[C@@]34c5ccccc5N5[C@@H]6OCC=C7C[N+]8(CC(N)=O)CC[C@]9%10c%11ccccc%11N([C@@H]%11OCC=C(C1)[C@H](C[C@@H]32)[C@@H]%11[C@H]54)[C@H]9[C@H]6[C@H]7C[C@@H]%108 (stereo partly specified)	%	87.8
C/C=C/C[N@+]12CCC34c5ccccc5N5C6OCC=C7C[N@+]8(C/C=C/C)CCC9%10c%11ccccc%11N(C%11OCC=C(C1)C(CC32)C%11C54)C9C6C7CC%108 (stereo partly specified)	%	100

----------
- study_system: Muscarinic acetylcholine receptor M2 (Sus scrofa) (UniProt P06199)
- Sequence (P06199 whole entry): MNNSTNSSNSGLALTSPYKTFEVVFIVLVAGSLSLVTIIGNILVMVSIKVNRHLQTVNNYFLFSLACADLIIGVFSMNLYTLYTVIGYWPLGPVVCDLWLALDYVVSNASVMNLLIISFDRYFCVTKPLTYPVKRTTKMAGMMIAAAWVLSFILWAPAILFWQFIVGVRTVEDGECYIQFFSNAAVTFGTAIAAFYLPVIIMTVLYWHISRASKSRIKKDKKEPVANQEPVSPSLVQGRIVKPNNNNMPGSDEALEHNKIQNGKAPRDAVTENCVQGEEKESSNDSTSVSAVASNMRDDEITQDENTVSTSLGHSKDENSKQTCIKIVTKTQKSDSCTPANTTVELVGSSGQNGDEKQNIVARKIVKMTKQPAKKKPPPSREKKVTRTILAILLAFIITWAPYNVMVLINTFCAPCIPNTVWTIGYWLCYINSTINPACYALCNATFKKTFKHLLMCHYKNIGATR
- test: Concentration for half maximal inhibition of [3H]NMS dissociation from muscarinic acetylcholine receptor M2 in porcine heart ventricles
measured_quantity: pEC0.5

molecule	pEC0.5
C=CC[N+]12CC[C@@]34c5ccccc5N5[C@@H]6OCC=C7C[N+]8(CC=C)CC[C@]9%10c%11ccccc%11N([C@@H]%11OCC=C(C1)[C@H](C[C@@H]32)[C@@H]%11[C@H]54)[C@H]9[C@H]6[C@H]7C[C@@H]%108 (stereo partly drawn)	7.95
C1=C2C[N@+]3(Cc4ccc5ccccc5c4)CCC45c6ccccc6N6C7OCC=C8C[N@+]9(Cc%10ccc%11ccccc%11c%10)CCC%10%11c%12ccccc%12N(C(OC1)C(C2CC43)C65)C%10C7C8CC%119 (stereo partly drawn)	5.82
C1=C2C[N@+]3(CC4CC4)CCC45c6ccccc6N6C7OCC=C8C[N@+]9(CC%10CC%10)CCC%10%11c%12ccccc%12N(C(OC1)C(C2CC43)C65)C%10C7C8CC%119 (stereo partly drawn)	7.86
CC#CC[N@+]12CCC34c5ccccc5N5C6OCC=C7C[N@+]8(CC#CC)CCC9%10c%11ccccc%11N(C%11OCC=C(C1)C(CC32)C%11C54)C9C6C7CC%108 (stereo partly drawn)	7.36
C[N+]12CC[C@@]34c5ccccc5N5[C@@H]6OCC=C7C[N+]8(C)CC[C@]9%10c%11ccccc%11N([C@@H]%11OCC=C(C1)[C@H](C[C@@H]32)[C@@H]%11[C@H]54)[C@H]9[C@H]6[C@H]7C[C@@H]%108 (stereo partly drawn)	8.09
C[N+]12CCC34c5ccccc5N5/C=C6/C7CC8C9(CC[N+]8(C)C/C7=C/CO)c7ccccc7N(/C=C(/C(CC31)/C(=C/CO)C2)C54)C69 (stereo not drawn)	7.87
C1=C2C[N@+]3(Cc4ccccc4)CCC45c6ccccc6N6C7OCC=C8C[N@+]9(Cc%10ccccc%10)CCC%10%11c%12ccccc%12N(C(OC1)C(C2CC43)C65)C%10C7C8CC%119 (stereo partly drawn)	7.12
C1=CC([N@+]23CCC45c6ccccc6N6C7OCC=C8C[N@+]9(C%10C=CCCC%10)CCC%10%11c%12ccccc%12N(C%12OCC=C(C2)C(CC43)C%12C65)C%10C7C8CC%119)CCC1 (stereo partly drawn)	7.7
OC/C=C1\C[N+]2(C3C=CCCC3)CCC34c5ccccc5N5/C=C6/C7CC8C9(CC[N+]8(C8C=CCCC8)C/C7=C/CO)c7ccccc7N(/C=C(/C1CC32)C54)C69 (stereo not drawn)	8.07
O=C1c2ccccc2C(=O)N1CCC[N@+]12CCC34c5ccccc5N5C6OCC=C7C[N@+]8(CCCN9C(=O)c%10ccccc%10C9=O)CCC9%10c%11ccccc%11N(C%11OCC=C(C1)C(CC32)C%11C54)C9C6C7CC%108 (stereo partly drawn)	6.43
COc1ccc(C[N+]23CC[C@@]45c6ccccc6N6[C@@H]7OCC=C8C[N+]9(Cc%10ccc(OC)c(OC)c%10)CC[C@]%10%11c%12ccccc%12N([C@@H]%12OCC=C(C2)[C@H](C[C@@H]43)C%12[C@H]65)[C@H]%10[C@H]7[C@H]8C[C@@H]%119)cc1OC (stereo partly drawn)	6.47
C#CC[N@+]12CCC34c5ccccc5N5C6OCC=C7C[N@+]8(CC#C)CCC9%10c%11ccccc%11N(C%11OCC=C(C1)C(CC32)C%11C54)C9C6C7CC%108 (stereo partly drawn)	8.36
C/C=C/C[N@+]12CCC34c5ccccc5N5C6OCC=C7C[N@+]8(C/C=C/C)CCC9%10c%11ccccc%11N(C%11OCC=C(C1)C(CC32)C%11C54)C9C6C7CC%108 (stereo partly drawn)	7.14

----------
- study_system: Muscarinic acetylcholine receptor M2 (Sus scrofa) (UniProt P06199)
- test: Equilibrium binding to muscarinic acetylcholine receptor M2 using [3H]NMS in porcine heart ventricles
measured_quantity: [3H]NMS equilibrium binding (%)
Write the number in % without appending the unit.

molecule	[3H]NMS equilibrium binding (%)
C1=C2CN3CC[C@]45c6ccccc6N6[C@@H]7OCC=C8CN9CC[C@]%10%11c%12ccccc%12N([C@H](OC1)[C@@H]([C@H]64)[C@H]2C[C@H]35)[C@H]%10[C@H]7[C@H]8C[C@H]9%11	95.8
C#CC[N@+]12CCC34c5ccccc5N5C6OCC=C7C[N@+]8(CC#C)CCC9%10c%11ccccc%11N(C%11OCC=C(C1)C(CC32)C%11C54)C9C6C7CC%108 (some centres undefined)	105
C[N+]12CCC34c5ccccc5N5/C=C6/C7CC8C9(CC[N+]8(C)C/C7=C/CO)c7ccccc7N(/C=C(/C(CC31)/C(=C/CO)C2)C54)C69 (centres undefined)	119

Note: attention shifts to another entry.
Using the record for C[N@@+]12CC[C@@]34c5ccccc5N5/C=C6/[C@H]7C[C@H]8[C@@]9(CC[N@@+]8(C)C/C7=C/CO)c7ccccc7N(/C=C(/[C@@H](C[C@@H]31)/C(=C\CO)C2)[C@H]54)[C@@H]69 , report its [3H]NMS equilibrium binding (%).
104
